- tested system: JMJD2B (Homo sapiens, UniProt O94953)
- Sequence (O94953 whole entry): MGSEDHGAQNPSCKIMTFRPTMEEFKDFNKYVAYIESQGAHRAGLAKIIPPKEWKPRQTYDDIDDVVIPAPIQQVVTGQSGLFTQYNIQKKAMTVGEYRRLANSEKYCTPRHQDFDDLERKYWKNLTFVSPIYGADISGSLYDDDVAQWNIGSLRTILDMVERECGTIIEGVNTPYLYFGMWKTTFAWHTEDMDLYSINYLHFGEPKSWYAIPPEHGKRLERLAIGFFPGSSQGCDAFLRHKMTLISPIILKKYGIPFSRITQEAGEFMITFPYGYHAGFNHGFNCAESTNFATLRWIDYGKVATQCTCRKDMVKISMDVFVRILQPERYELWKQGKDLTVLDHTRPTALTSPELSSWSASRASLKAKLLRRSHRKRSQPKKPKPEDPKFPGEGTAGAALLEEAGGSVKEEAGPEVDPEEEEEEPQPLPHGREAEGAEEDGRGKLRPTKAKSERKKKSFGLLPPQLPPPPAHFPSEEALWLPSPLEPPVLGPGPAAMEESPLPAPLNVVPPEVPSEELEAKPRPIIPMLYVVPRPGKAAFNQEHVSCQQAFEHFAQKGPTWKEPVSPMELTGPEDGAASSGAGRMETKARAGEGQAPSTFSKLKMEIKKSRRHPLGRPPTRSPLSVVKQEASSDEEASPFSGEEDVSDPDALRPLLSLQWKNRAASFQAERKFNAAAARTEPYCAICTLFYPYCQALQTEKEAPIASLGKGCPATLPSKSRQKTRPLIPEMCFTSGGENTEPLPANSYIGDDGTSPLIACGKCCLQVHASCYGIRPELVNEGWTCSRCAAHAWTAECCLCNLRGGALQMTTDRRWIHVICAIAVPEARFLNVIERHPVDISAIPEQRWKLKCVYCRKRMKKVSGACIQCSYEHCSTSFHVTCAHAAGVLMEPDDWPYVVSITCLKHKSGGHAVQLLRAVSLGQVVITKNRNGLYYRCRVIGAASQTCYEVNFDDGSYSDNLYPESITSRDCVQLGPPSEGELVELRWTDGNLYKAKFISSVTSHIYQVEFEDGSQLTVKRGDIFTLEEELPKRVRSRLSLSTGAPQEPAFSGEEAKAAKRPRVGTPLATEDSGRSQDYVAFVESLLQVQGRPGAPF
measured metric: pIC50
Note on units: pIC50 is unitless, being -log10 of a concentration expressed in mol/L.

-- ask Report the value of pIC50 obtained on JMJD2B (Homo sapiens, UniProt O94953) for O=Cc1ccc(O)c(O)c1 [PA, 3,4-dihydroxybenzaldehyde] .
-- reply 4.41

---

- tested system: JMJD2C (Homo sapiens, UniProt Q9H3R0)
- Sequence (Q9H3R0 1-1056): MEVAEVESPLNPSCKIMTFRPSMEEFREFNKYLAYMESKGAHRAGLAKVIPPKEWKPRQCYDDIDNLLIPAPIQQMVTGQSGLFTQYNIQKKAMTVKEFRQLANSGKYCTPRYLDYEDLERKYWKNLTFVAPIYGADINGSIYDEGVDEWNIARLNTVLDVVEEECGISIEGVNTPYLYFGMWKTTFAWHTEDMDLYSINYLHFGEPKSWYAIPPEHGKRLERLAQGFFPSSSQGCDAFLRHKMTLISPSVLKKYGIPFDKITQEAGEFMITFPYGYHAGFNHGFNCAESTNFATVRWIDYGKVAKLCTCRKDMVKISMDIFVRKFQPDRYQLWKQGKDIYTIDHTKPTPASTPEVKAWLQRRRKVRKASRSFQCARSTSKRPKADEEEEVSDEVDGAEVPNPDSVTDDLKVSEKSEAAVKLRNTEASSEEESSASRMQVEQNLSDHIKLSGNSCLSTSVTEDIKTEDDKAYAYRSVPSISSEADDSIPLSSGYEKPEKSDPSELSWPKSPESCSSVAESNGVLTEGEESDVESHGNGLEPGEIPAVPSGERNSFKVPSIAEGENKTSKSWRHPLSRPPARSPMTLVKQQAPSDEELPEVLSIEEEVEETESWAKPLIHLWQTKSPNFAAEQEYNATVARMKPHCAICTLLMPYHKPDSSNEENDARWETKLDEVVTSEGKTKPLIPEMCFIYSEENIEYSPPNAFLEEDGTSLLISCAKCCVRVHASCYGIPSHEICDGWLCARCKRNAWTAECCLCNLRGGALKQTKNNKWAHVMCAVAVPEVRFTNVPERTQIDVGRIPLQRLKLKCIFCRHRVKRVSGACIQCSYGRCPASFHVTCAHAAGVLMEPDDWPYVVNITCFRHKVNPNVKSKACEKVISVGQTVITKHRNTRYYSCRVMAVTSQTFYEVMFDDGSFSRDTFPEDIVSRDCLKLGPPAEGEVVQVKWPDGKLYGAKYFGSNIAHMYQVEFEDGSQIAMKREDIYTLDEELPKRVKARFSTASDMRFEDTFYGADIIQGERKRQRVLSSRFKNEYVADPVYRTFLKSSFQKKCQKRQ
measured metric: IC50

-- ask Using JMJD2C (Homo sapiens, UniProt Q9H3R0) as the test system, report measured IC50 of O=Cc1ccc(O)c(O)c1 [PA, 3,4-dihydroxybenzaldehyde] .
-- reply 33.7 µM
